# experiment summary: Half life in mice at 5 mg/kg, po
# Assay type: ADME, organism-based
# Design: dose 5 mg/kg, route oral
# stated conditions: mouse, in vivo
assay endpoint: half-life (h)
Response body: numeric value in h, unit text excluded.

The compound `O=S(=O)(c1ccccc1)N(CC(F)(F)F)c1ccc(C(O)(C(F)(F)F)C(F)(F)F)cc1` showed half-life equal to 3

---

# target entity: Oxysterols receptor LXR-alpha (Homo sapiens, UniProt Q13133)
# Sequence (Q13133 whole entry): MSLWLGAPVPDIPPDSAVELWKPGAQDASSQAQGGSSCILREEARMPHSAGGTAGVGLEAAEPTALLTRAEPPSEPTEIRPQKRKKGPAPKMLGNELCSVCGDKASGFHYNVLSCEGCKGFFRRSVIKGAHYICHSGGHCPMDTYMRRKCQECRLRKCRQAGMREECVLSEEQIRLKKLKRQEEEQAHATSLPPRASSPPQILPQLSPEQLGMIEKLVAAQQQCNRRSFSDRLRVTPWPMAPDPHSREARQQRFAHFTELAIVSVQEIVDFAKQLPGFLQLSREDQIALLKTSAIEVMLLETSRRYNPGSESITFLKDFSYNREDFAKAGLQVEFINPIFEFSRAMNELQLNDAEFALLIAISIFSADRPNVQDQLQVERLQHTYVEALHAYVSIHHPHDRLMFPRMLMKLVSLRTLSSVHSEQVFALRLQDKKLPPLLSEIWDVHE
# experiment summary: Activity against LXR alpha transiently transfected in HEK293 cells
assay endpoint: EC50 (nM)
Response body: numeric value in nM, unit text excluded.

molecule | EC50 (nM)
C[C@H](CC[C@@H]1OC1(C)C)[C@H]1CC[C@H]2[C@@H]3CC=C4C[C@@H](O)CC[C@]4(C)[C@H]3CC[C@]12C [24(S),25-EPOXYCHOLESTEROL] | 500

The molecule `O=S(=O)(c1ccccc1)N1CCCCc2cc(C(O)(C(F)(F)F)C(F)(F)F)ccc21` showed EC50 equal to 10

The molecule `CN(Cc1ccc(C(O)(C(F)(F)F)C(F)(F)F)cc1)S(=O)(=O)c1ccccc1` showed EC50 equal to 3000

Hey, just so you know, these numbers are from ChEMBL document CHEMBL1146053.
